Taken from patent US20150232546A1.

Molecular target: Recombinant human PDGF-C from R&D Systems (1687-CC/CF; Val235-Gly345) (human, UniProt Q9NRA1 235-345)
Sequence (Q9NRA1 235-345 limits assumed, form in doubt): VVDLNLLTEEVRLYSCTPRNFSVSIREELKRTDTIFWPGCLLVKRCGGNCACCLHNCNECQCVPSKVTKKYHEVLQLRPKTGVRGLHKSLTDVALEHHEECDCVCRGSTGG
Test: cell-based or functional assay
endpoint_label: IC50 value (nM), PathHunter PDGFRα assay
Value expressed in nM; do not type the unit.

{"columns": ["binder", "u", "IC50 value (nM), PathHunter PDGFRα assay"],
 "data": [
  ["anti-PDGF-C antibody 16B1 (antibody, IgG1, V domains shown, Mouse monoclonal from hybridoma, IgG1, kappa; VH same as 2D3, VL same as 5A2; also called mAb 16B1; hybridoma LMBP 9486CB) VH: EVQLVESGGDLVKPGGSLKLSCAASGFTFSNYGMSWVRQTPDKRLEWVATIGSGGSYTYYPDSVKGRFTISRDSAKNTLYLQMSSLKSEDTAMYYCARQAPLWDYSDYWGQGTTLTVSS VL: DVLMTQTPLSLPVSLGDQASISCRSNQSIVHSNGDTYLEWYLQKPGQSPKLLIYKVSNRFSGVPDRFSGSGSGTDFTLKISRVEAEDLGVYYCFQGSHVPPTFGGGTKLEIK", "nM", 8.38]
]}

stdin: Item anti-PDGF-C antibody 2D3 (antibody, IgG1, V domains shown, Mouse monoclonal from hybridoma, IgG1, kappa; also called mAb 2D3; hybridoma LMBP 9483CB) VH: EVQLVESGGDLVKPGGSLKLSCAASGFTFSNYGMSWVRQTPDKRLEWVATIGSGGSYTYYPDSVKGRFTISRDSAKNTLYLQMSSLKSEDTAMYYCARQAPLWDYSDYWGQGTTLTVSS VL: DVLMTQTPLSLPVSLGDQASISCRSNQTIVHSNGDTYLEWYLQKPGQSPNLLIYKVSNRFSGVPDRFSGSGSGTDFTLKISRVEAEDLGVYYCFQGSHVPPTFGGGTKLEIK has what recorded IC50 value (nM), PathHunter PDGFRα assay?
stdout: 7.47

stdin: Next up: anti-PDGF-C antibody 5H7 (antibody, IgG1, V domains shown, Mouse monoclonal from hybridoma, IgG1, kappa; also called mAb 5H7; hybridoma LMBP 9485CB) VH: EVQLVESGGDLVKPGGSLKLSCAASGFTFSSYGMSWVRQTPDKRLEWVATIGYGGSFTYYPDSMKGRFTISRDNAKNTLFLQMSSLKSEDTAIYYCVRQAPLWDYFDYWGQGTTLTVSS VL: DVLMTQTPLSLPVSLGDQASISCRSSQTIVHSDGTTYLEWYLQKAGQSPKLLIYKVSNRFSGVPDRFSGSGSGTDFTLKISRVEAEDLGVYYCFQGSHVPPTFGGGTKLEIK
stdout: 5.57

stdin: What do we get for anti-PDGF-C antibody 5A2 (antibody, IgG2b, V domains shown, Mouse monoclonal from hybridoma, IgG2b, kappa; also called mAb 5A2; hybridoma LMBP 9484CB) VH: EVQLVESGGDLVKPGGSLKLSCAASGFTFSNYGMSWVRQTPDKRLEWVATIGSGGHYTYYPDSVKGRFTISRDSAKSTLYLQMSSLKSEDTAIYYCARQAPLWDCSDYWGQGTTLTVSS VL: DVLMTQTPLSLPVSLGDQASISCRSNQSIVHSNGDTYLEWYLQKPGQSPKLLIYKVSNRFSGVPDRFSGSGSGTDFTLKISRVEAEDLGVYYCFQGSHVPPTFGGGTKLEIK ?
stdout: 3.36
